Some compounds, each annotated with its measured pIC50.
target: recombinant human GR (Homo sapiens, UniProt P04150); test: Human Glucocorticoid Receptor (GR) Assay, fluorescence polarization; conditions: GS Red tracer, 2 hours at room temperature, 100% control 10 μM Dexamethasone, read-out: Inhibition of GR binding, IC50
Sequence (P04150 whole entry): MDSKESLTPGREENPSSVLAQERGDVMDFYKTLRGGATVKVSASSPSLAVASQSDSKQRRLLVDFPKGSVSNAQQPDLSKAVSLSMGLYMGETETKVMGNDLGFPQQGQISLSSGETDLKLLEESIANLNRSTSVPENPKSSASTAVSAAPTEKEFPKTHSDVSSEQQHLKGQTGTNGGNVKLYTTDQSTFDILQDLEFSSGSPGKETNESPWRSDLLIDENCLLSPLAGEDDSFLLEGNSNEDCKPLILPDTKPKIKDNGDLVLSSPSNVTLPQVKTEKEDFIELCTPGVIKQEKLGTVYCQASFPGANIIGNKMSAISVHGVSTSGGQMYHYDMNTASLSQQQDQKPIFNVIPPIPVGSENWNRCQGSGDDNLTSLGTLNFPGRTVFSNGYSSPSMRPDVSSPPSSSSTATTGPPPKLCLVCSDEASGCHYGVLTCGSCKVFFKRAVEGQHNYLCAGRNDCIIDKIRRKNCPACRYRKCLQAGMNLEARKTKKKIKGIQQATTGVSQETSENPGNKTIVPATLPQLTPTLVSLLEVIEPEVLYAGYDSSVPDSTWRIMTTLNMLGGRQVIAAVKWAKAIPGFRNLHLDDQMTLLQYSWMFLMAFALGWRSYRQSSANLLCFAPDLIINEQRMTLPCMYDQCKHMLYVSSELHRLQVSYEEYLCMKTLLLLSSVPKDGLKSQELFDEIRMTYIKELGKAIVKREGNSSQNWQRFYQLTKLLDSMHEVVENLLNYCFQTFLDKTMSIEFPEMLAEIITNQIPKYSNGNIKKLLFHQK
pIC50: −log10 of the molar value.

compound | pIC50
CC1=C[C@@H]2[C@H]([C@@H](O)C[C@@]3(C)[C@H]2CC[C@]3(OC(=O)c2cocn2)C(=O)SCF)[C@@]2(C)Cc3cnn(-c4ccc(F)nc4)c3C=C12 [Example 14] | 8.54
C[C@]12Cc3cnn(-c4ccc(F)nc4)c3C=C1C=C[C@@H]1[C@@H]2[C@@H](O)C[C@@]2(C)[C@H]1CC[C@]2(OC(=O)C1CC1)C(=O)SCC#N [Example 9] | 9.00
COCC(=O)O[C@]1(C(=O)SCF)CC[C@H]2[C@@H]3C=C(C)C4=Cc5c(cnn5-c5ccc(F)nc5)C[C@]4(C)[C@H]3[C@@H](O)C[C@@]21C [Example 16] | 8.82
CC1=C[C@@H]2[C@H]([C@@H](O)C[C@@]3(C)[C@H]2CC[C@]3(OC(=O)C2CC2)C(=O)SCC#N)[C@@]2(C)Cc3cnn(-c4ccc(F)nc4)c3C=C12 [Example 13] | 8.82
CCC(=O)O[C@]1(C(=O)SCF)CC[C@H]2[C@@H]3C=C(C)C4=Cc5c(cnn5-c5ccc(F)nc5)C[C@]4(C)[C@H]3[C@@H](O)C[C@@]21C [Example 11] | 8.44
COCC(=O)O[C@]1(C(=O)SCC#N)CC[C@H]2[C@@H]3C=C(C)C4=Cc5c(cnn5-c5ccc(F)nc5)C[C@]4(C)[C@H]3[C@@H](O)C[C@@]21C [Example 1] | 8.64
CCC(=O)O[C@]1(C(=O)SCC#N)[C@H](C)C[C@H]2[C@@H]3C=C(C)C4=Cc5c(cnn5-c5ccccc5)C[C@]4(C)[C@H]3[C@@H](O)C[C@@]21C [Example 17] | 8.32
CC1=C[C@@H]2[C@H]([C@@H](O)C[C@@]3(C)[C@H]2CC[C@]3(OC(=O)c2cocn2)C(=O)SCC#N)[C@@]2(C)Cc3cnn(-c4ccc(F)nc4)c3C=C12 [Example 15] | 8.43
CC1=C[C@@H]2[C@H]([C@@H](O)C[C@@]3(C)[C@H]2CC[C@]3(OC(=O)C2CC2)C(=O)SCF)[C@@]2(C)Cc3cnn(-c4ccc(F)nc4)c3C=C12 [Example 12] | 8.80
CC1=C[C@@H]2[C@H]([C@@H](O)C[C@@]3(C)[C@H]2C[C@@H](C)[C@]3(OC(=O)c2ccco2)C(=O)SCC#N)[C@@]2(C)Cc3cnn(-c4ccccc4)c3C=C12 [Example 18] | 7.92
C[C@]12Cc3cnn(-c4ccc(F)nc4)c3C=C1C=C[C@@H]1[C@@H]2[C@@H](O)C[C@@]2(C)[C@H]1CC[C@]2(OC(=O)c1cocn1)C(=O)SCF [Example 5] | 8.82
C[C@]12Cc3cnn(-c4ccc(F)nc4)c3C=C1C=C[C@@H]1[C@@H]2[C@@H](O)C[C@@]2(C)[C@H]1CC[C@]2(OC(=O)C1CC1)C(=O)SCF [Example 8] | 8.85
CCC(=O)O[C@]1(C(=O)SCC#N)CC[C@H]2[C@@H]3C=C(C)C4=Cc5c(cnn5-c5ccc(F)nc5)C[C@]4(C)[C@H]3[C@@H](O)C[C@@]21C [Example 2] | 8.68
C[C@]12Cc3cnn(-c4ccc(F)nc4)c3C=C1C=C[C@@H]1[C@@H]2[C@@H](O)C[C@@]2(C)[C@H]1CC[C@]2(OC(=O)c1cocn1)C(=O)SCC#N [Example 6] | 8.74
CCC(=O)O[C@]1(C(=O)SCF)CC[C@H]2[C@@H]3C=CC4=Cc5c(cnn5-c5ccc(F)nc5)C[C@]4(C)[C@H]3[C@@H](O)C[C@@]21C [Example 3] | 8.85
CCC(=O)O[C@]1(C(=O)SCC#N)CC[C@H]2[C@@H]3C=CC4=Cc5c(cnn5-c5ccc(F)nc5)C[C@]4(C)[C@H]3[C@@H](O)C[C@@]21C [Example 10] | 9.08
COCC(=O)O[C@]1(C(=O)SCF)CC[C@H]2[C@@H]3C=CC4=Cc5c(cnn5-c5ccc(F)nc5)C[C@]4(C)[C@H]3[C@@H](O)C[C@@]21C [Example 4] | 9.10
COCC(=O)O[C@]1(C(=O)SCC#N)CC[C@H]2[C@@H]3C=CC4=Cc5c(cnn5-c5ccc(F)nc5)C[C@]4(C)[C@H]3[C@@H](O)C[C@@]21C [Example 7] | 9.06
